Just for reference, patent US10183914B2 is where these values come from.

Below: a set of entries, each annotated with reported post-emergence efficacy SETVI.
System: Setaria viridis
Test: Post-emergence herbicidal effect
Type: in vivo
Details: 320 g/ha (dose by row order of upper half), scoring after about 3 weeks
I only need the number, in %, no unit after it.

Quick check: post-emergence efficacy SETVI on Setaria viridis, item O=C1CCCc2nc(N[C@@H]3CCCc4c(F)cccc43)ncc21 ?
100

// query: Cc1ccc2c(c1)[C@H](Nc1ncc3c(n1)COCC3=O)[C@@H](C)C2
80

// query: Cc1ccc2c(c1)[C@H](Nc1ncc3c(n1)CCCC3=O)[C@@H](C)C2 [2.43]
80

// query: Cc1cccc2c1OCC[C@H]2Nc1ncc2c(n1)CCCC2=O
90
